Listed next: entries and their corresponding pIC50.
Test system: CEM cells HIV-1 protection, formazan growth assay
Assay: NCI AIDS Antiviral Assay
Conditions: measured here: growth of uninfected CEM cells
pIC50: −log10 of the molar value.

Record excerpt, results attached:
compound | pIC50
COC(=O)CCC(C)C1CCC2C3CCC4CC5CCC4C3(CO5)C(=O)C(Br)C12C (centres undefined) | < 4.97
S=C1Cc2cc3ccccc3nc2-c2ccccc2N1 | < 4.00

Moving on to another compound below.
Lookup: What value of measured pIC50 is listed for CC1(C)CC(C)(C)C1=NNC(N)=O ?
Found: < 3.70

----------
Listed next: entries and their corresponding pIC50.
Test system: CEM cells HIV-1 protection, formazan growth assay
Assay: NCI AIDS Antiviral Assay
Conditions: measured here: growth of uninfected CEM cells
By convention, pIC50 is the negative base-10 log of a molar concentration.

Record excerpt, results attached:
molecule | readout_name | number
C/C(=C\Cc1ccc(F)cc1)CCCCCC/C(C)=C/Cc1ccc(F)cc1 | pIC50 | 4.65
CC1(C)/C(=C/N=O)N(O)C(C)(C)N1O | pIC50 | 3.92
COc1ccc2c(c1)OC(c1ccccc1O)CC2=O (centres undefined) | pIC50 | 4.52

Lookup: What value of measured pIC50 is listed for Cc1cc2c(cc1Cl)Sc1nccn1S2(=O)=O ?
Found: 4.10

Lookup: What value of measured pIC50 is listed for CC(C)/C(Cl)=N\OC(=O)Nc1cccc(F)c1 ?
Found: 5.01

Lookup: What value of measured pIC50 is listed for O=C1c2cccn2-c2ccccc2SC1c1ccccc1 (centres undefined) ?
Found: 4.69

Lookup: What value of measured pIC50 is listed for S=C1c2cc(Cl)ccc2NC(=NC2CCCC2)C2CSCN12 (centres undefined) ?
Found: 4.47

Lookup: What value of measured pIC50 is listed for O=C(CCc1ccccc1)NCCc1ccc(O)c(O)c1 ?
Found: 4.83
